# assay system: Myeloperoxidase (Homo sapiens, UniProt P05164)
# Sequence (P05164 165-273 limits assumed): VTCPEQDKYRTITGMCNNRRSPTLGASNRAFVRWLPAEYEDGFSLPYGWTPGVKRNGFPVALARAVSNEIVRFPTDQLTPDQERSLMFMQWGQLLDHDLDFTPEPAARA
# Sequence (P05164 279-745 limits assumed): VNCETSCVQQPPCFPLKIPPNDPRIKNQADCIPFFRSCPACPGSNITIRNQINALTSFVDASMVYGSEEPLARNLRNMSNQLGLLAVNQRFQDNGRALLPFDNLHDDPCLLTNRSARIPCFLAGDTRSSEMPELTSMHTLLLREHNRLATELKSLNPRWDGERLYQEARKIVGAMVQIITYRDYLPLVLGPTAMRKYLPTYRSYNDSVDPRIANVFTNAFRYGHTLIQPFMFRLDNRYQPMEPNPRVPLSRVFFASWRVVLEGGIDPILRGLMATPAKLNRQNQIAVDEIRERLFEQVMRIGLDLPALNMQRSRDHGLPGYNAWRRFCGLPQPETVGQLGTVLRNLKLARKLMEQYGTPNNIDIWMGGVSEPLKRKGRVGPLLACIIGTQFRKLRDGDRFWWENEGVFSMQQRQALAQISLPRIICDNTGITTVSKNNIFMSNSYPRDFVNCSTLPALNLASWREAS
# assay details: Inhibition of human MPO using taurine as substrate assessed as reduction in substrate chlorination incubated for 30 mins by taurine-chloramine assay
pIC50: −log10 of the molar value.
value kind: pIC50

Would you please look over these solved cases?
compound string	pIC50
COc1ccc(NC(=O)Cn2c(=S)[nH]c3ccccc32)cc1	5.39
Cc1cccc(NC(=O)Cn2c(=S)[nH]c3ccccc32)c1	5.41
O=C(Cn1c(=S)[nH]c2ccccc21)NCc1ccccc1	5.36
O=C(Cn1c(=S)[nH]c2ccccc21)Nc1cccc(Cl)c1	5.03
O=C(Cn1c(=S)[nH]c2ccccc21)Nc1ccccc1[N+](=O)[O-]	5.25

A = O=C(Cn1c(=S)[nH]c2ccccc21)Nc1ccccc1Cl
B = COc1ccccc1NC(=O)Cn1c(=S)[nH]c2ccccc21
Please choose the item with the lower pIC50 value from this pair: A and B Give the label under which the chosen entry appears.
A
(A: 5.18, B: 5.43)
